src = patent US20120101257A1

Target: GHS-R1a receptor (Homo sapiens, UniProt Q92847)
Construct: expressed in transfected cells; host or cells: LLC-PK1 cells, transient calcium phosphate transfection, membrane preparation
Sequence (Q92847 whole entry): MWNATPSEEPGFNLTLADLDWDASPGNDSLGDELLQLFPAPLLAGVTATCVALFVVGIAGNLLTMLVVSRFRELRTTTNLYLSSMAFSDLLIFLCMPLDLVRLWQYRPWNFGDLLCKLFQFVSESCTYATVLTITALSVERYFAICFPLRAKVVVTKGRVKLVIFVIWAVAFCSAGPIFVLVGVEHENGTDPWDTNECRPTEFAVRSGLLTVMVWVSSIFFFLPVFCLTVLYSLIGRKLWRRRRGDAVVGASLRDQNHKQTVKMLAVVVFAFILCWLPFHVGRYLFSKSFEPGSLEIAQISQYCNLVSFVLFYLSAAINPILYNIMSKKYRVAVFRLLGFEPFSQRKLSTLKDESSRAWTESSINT
Experiment: GHS-R1a receptor competitive binding assay with 125I-Ghrelin
Details: competition with 125I-Ghrelin; GHS-R1a transiently transfected in LLC-PK1 cells
*1 amine or outer side, *2 acyl side, *3 side chain or, on linkers, in order; H or OH if unused. Where a SMILES comes first, the peptide text is derived from it. [ ]: non-standard residue; d: D form. The star is where a group is joined. X9 = O=C1C[C@H](N[*:1])CN1[C@@H](Cc1c[nH]c2ccccc12)C(=O)[*:2]; X7 = N[C@H]1CC(=O)N([C@H](Cc2c[nH]c3ccccc23)C(=O)*)C1; X3 = N[C@@H]1CCN([C@H](Cc2c[nH]c3ccccc23)C(=O)*)C1=O; X2 = NCCCC[C@@H](C(N)=O)N1CC[C@H](N*)C1=O
Recorded log10 IC50, one value per entry.
Kindly note that the scale is log10 and the underlying IC50 is in µM.

| COMPOUND | MEASURED_NUMBER |
| --- | --- |
| NCCCC[C@H](NC(=O)[C@@H](Cc1ccccc1)NC(=O)[C@H](Cc1c[nH]c2ccccc12)N1C[C@@H](NC(=O)[C@@H](Cc2c[nH]c3ccccc23)NC(=O)[C@@H](N)Cc2cnc[nH]2)CC1=O)C(N)=O [Compound 51, His-D-Trp-(S)-Bgl-Trp-D-Phe-Lys-NH2] (H-H[dW][X9][dF]K-NH2) | -0.18 |
| NCCCC[C@H](NC(=O)[C@H](Cc1ccccc1)NC(=O)[C@H](Cc1c[nH]c2ccccc12)N1CC[C@@H](NC(=O)[C@@H](Cc2c[nH]c3ccccc23)NC(=O)[C@@H](N)Cc2c[nH]cn2)C1=O)C(N)=O [Compound 62, His-D-Trp-(R)-Agl-Trp-D-Phe-Lys-NH2] | 0.45 |
| C[C@@H](C(=O)N[C@@H](Cc1c[nH]c2ccccc12)C(=O)N[C@H](Cc1ccccc1)C(=O)N[C@@H](CCCCN)C(N)=O)N1CC[C@H](NC(=O)[C@@H](N)Cc2c[nH]cn2)C1=O [Compound 45, His-(S)-Agl-Ala-Trp-D-Phe-Lys-NH2] | 1.46 |
| C[C@H](NC(=O)[C@@H](Cc1c[nH]c2ccccc12)NC(=O)[C@@H](N)Cc1c[nH]cn1)C(=O)N[C@@H](Cc1c[nH]c2ccccc12)C(=O)N[C@H]1CCN([C@@H](CCCCN)C(N)=O)C1=O [Compound 48, His-D-Trp-Ala-Trp-(S)-Agl-Lys-NH2] (H-H[dW]AW-X2) | 0.49 |
| C[C@H](NC(=O)[C@@H](Cc1c[nH]c2ccccc12)N1C[C@@H](N)CC1=O)C(=O)N[C@@H](Cc1c[nH]c2ccccc12)C(=O)N[C@H](Cc1ccccc1)C(=O)N[C@@H](CCCCN)C(N)=O [Compound 49, (S)-Bgl-D-Trp-Ala-Trp-D-Phe-Lys-NH2] (X7-AW[dF]K-NH2) | -0.43 |

What the record says about NCCCC[C@H](NC(=O)[C@H](Cc1ccccc1)NC(=O)[C@H](Cc1c[nH]c2ccccc12)N1CC[C@H](NC(=O)[C@@H](Cc2c[nH]c3ccccc23)NC(=O)[C@@H](N)Cc2c[nH]cn2)C1=O)C(N)=O [Compound 46, His-D-Trp-(S)-Agl-Trp-D-Phe-Lys-NH2] : log10 IC50 is 0.38

What the record says about C[C@H](NC(=O)[C@@H](Cc1c[nH]c2ccccc12)N1CC[C@@H](N)C1=O)C(=O)N[C@@H](Cc1c[nH]c2ccccc12)C(=O)N[C@H](Cc1ccccc1)C(=O)N[C@@H](CCCCN)C(N)=O [Compound 60, (R)-Agl-D-Trp-Ala-Trp-D-Phe-Lys-NH2] (X3-AW[dF]K-NH2) : log10 IC50 is 0.54
